# Target: PSMA (Homo sapiens)
# Sequence (Q04609 whole entry): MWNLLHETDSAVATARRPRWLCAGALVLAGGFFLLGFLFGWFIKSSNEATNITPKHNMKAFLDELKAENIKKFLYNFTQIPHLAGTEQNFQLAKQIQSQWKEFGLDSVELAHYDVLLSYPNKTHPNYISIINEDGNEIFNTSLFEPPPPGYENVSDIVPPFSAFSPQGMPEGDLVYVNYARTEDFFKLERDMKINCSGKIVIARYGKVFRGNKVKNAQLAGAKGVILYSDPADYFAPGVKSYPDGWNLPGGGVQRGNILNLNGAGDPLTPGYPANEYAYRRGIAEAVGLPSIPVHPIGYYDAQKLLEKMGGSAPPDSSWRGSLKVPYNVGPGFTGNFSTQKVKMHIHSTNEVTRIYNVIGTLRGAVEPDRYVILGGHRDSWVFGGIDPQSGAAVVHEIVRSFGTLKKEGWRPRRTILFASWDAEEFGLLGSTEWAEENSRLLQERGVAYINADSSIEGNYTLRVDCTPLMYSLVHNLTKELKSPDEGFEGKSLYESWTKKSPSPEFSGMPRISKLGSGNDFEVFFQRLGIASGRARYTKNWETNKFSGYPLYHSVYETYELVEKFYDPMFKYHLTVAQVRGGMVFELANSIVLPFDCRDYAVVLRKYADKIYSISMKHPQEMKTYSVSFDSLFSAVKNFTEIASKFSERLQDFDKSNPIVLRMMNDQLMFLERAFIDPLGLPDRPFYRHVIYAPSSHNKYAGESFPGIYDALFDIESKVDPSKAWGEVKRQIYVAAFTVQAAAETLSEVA
# Experimental protocol: IC50 determination: PSMA binding affinity, competition with [125I]XII on LNCaP cells
# Measurement setup: LNCaP cells (150.000 cells/well); reference [125I]XII c = 0.2 nM; 1 h, 4° C., HBSS add. 1% BSA; mean ± SD (n = 3)
*1 amine or outer side, *2 acyl side, *3 side chain or, on linkers, in order; H or OH if unused. Where a SMILES comes first, the peptide text is derived from it. Side-chain parts run from the residue outwards. [ ]: non-standard residue; d: D form. The star is where a group is joined. X1 = O=C(O)CC[C@H](NC(=O)N[C@@H](CCC(=O)N[C@H](CCCN*)C(=O)O)C(=O)O)C(=O)O; Benzoyl(4-SiFtBu2) = CC(C)(C)[Si](F)(c1ccc(C(=O)*)cc1)C(C)(C)C; Suc = O=C(CCC(=O)[*:2])[*:1]; dDap = NC[C@@H](N)C(=O)O
Consider the following molecules; for each one, report its IC50.
# include the unit after the value

I'm hoping you can list IC50 for every molecule here, please.
1. CC(C)(C)[Si](F)(c1ccc(C(=O)NC[C@@H](NC(=O)[C@@H](CN)NC(=O)CC[C@H](NC(=O)N[C@@H](CCC(=O)O)C(=O)O)C(=O)O)C(=O)N[C@H](CCCCNC(=O)CCC(=O)NCCC[C@@H](NC(=O)CC[C@H](NC(=O)N[C@@H](CCC(=O)O)C(=O)O)C(=O)O)C(=O)O)C(=O)O)cc1)C(C)(C)C [SiFA-PSMA ligand 01 e]
2. CC(C)(C)[Si](F)(c1ccc(C(=O)NC[C@@H](NC(=O)[C@@H](Cc2ccccc2)NC(=O)[C@@H](CCC(=O)O)NC(=O)[C@H](N)CCC(=O)O)C(=O)N[C@H](CCCCNC(=O)CCC(=O)NCCC[C@@H](NC(=O)CC[C@H](NC(=O)N[C@@H](CCC(=O)O)C(=O)O)C(=O)O)C(=O)O)C(=O)O)cc1)C(C)(C)C [SiFA-PSMA ligand 03 i] (H-[dE][dE][dF][dDap](Benzoyl(4-SiFtBu2))[dK]([Suc-X1])-OH)
3. CC(C)(C)[Si](F)(c1ccc(C(=O)NC[C@@H](NC(=O)[C@@H](CC(=O)O)NC(=O)[C@@H](CCC(=O)O)NC(=O)[C@H](N)CCC(=O)O)C(=O)N[C@H](CCCCNC(=O)CCC(=O)NCCC[C@@H](NC(=O)CC[C@H](NC(=O)N[C@@H](CCC(=O)O)C(=O)O)C(=O)O)C(=O)O)C(=O)O)cc1)C(C)(C)C [SiFA-PSMA ligand 03 a] (H-[dE][dE][dD][dDap](Benzoyl(4-SiFtBu2))[dK]([Suc-X1])-OH)

[reply]
1: 9.2 nM; 2: 20.6 nM; 3: 9.3 nM
